# percentage of EdU-negative per entry
system: MCF7; assay: percentage of EdU-negative (G0-arrested) nuclei per well, 72 h; higher = more G0 arrest; settings: protein concentration 0.0225 µM; reference: sequence is the full UniProt precursor, the tested protein was the secreted form or ectodomain;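 note: secreted proteins added to cultured cells, EdU pulse at the end, nuclei found by Hoechst imaging, EdU status from nuclear versus surrounding ring intensity ratio, PBS as neutral control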
Number in %, nothing else.

Example entries begin here.
Biosequence	percentage of EdU-negative [%]
MDRRSRAQQWRRARHNYNDLCPPIGRRAATALLWLSCSIALLRALATSNARAQQRAAAQQRRSFLNAHHRSGAQVFPESPESESDHEHEEADLELSLPECLEYEEEFDYETESETESEIESETDFETEPETAPTTEPETEPEDDRGPVVPKHSTFGQSLTQRLHALKLRSPDASPSRAPPSTQEPQSPREGEELKPEDKDPRDPEESKEPKEEKQRRRCKPKKPTRRDASPESPSKKGPIPIRRH	27.2
MAGPPRLLLLPLLLALARGLPGALAAQEVQQSPHCTTVPVGASVNITCSTSGGLRGIYLRQLGPQPQDIIYYEDGVVPTTDRRFRGRIDFSGSQDNLTITMHRLQLSDTGTYTCQAITEVNVYGSGTLVLVTEEQSQGWHRCSDAPPRASALPAPPTGSALPDPQTASALPDPPAASALPAALAVISFLLGLGLGVACVLARTQIKKLCSWRDKNSAACVVYEDMSHSRCNTLSSPNQYQ	25.1
MPRYVPLLLLLLLLRCSERGGGVNFGEKDAKVPGTWRDGVRVPGEGASWDSDRASPERRYGIVGLSQSISTKHPETSPKDSRIRENDVTADGRTTEDHITADPGTTEDSVTADPGTTEDNVTVDPGTTEGSVTADPATTKDYVSADPGTTKDSVTADPGTTENFVTADPGTTKDSITADPRTTEDSVTADPGTTKHSITVDPGTTEDSVTADPGTTKHSITADPGTTEDSVTADPGTTEDETTKHGDTHLL [E2RYF7]	23.6
MGCLLFLLLWALLQAWGSAEVPQRLFPLRCLQISSFANSSWTRTDGLAWLGELQTHSWSNDSDTVRSLKPWSQGTFSDQQWETLQHIFRVYRSSFTRDVKEFAKMLRLSYPLELQVSAGCEVHPGNASNNFFHVAFQGKDILSFQGTSWEPTQEAPLWVNLAIQVLNQDKWTRETVQWLLNGTCPQFVSGLLESGKSELKKQVKPKAWLSRGPSPGPGRLLLVCHVSGFYPKPVWVKWMRGEQEQQGTQPGDILPNADETWYLRATLDVVAGEAAGLSCRVKHSSLEGQDIVLYWGGSYTSMGLIALAVLACLLFLLIVGFTSRFKRQTSYQGVL	23.9

Query block: Item `MGPPSASPHRECIPWQGLLLTASLLNFWNPPTTAKLTIESMPLSVAEGKEVLLLVHNLPQHLFGYSWYKGERVDGNSLIVGYVIGTQQATPGAAYSGRETIYTNASLLIQNVTQNDIGFYTLQVIKSDLVNEEATGQFHVYQENAPGLPVGAVAGIVTGVLVGVALVAALVCFLLLAKTGRTSIQRDLKEQQPQALAPGRGPSHSSAFSMSPLSTAQAPLPNPRTAASIYEELLKHDTNIYCRMDHKAEVAS` has what recorded percentage of EdU-negative?
Result block: 25

Query block: Item `MIPLLLAALLCVPAGALTCYGDSGQPVDWFVVYKLPALRGSGEAAQRGLQYKYLDESSGGWRDGRALINSPEGAVGRSLQPLYRSNTSQLAFLLYNDQPPQPSKAQDSSMRGHTKGVLLLDHDGGFWLVHSVPNFPPPASSAAYSWPHSACTYGQTLLCVSFPFAQFSKMGKQLTYTYPWVYNYQLEGIFAQEFPDLENVVKGHHVSQEPWNSSITLTSQAGAVFQSFAKFSKFGDDLYSGWLAAALGTNLQVQFWHKTVGILPSNCSDIWQVLNVNQIAFPGPAGPSFNSTEDHSKWCVSPKGPWTCVGDMNRNQGEEQRGGGTLCAQLPALWKAFQPLVKNYQPCNGMARKPSRAYKI` has what recorded percentage of EdU-negative?
Result block: 24.5

Query block: Item MKALGAVLLALLLFGRPGRGQTQQEEEEEDEDHGPDDYDEEDEDEVEEEETNRLPGGRSRVLLRCYTCKSLPRDERCNLTQNCSHGQTCTTLIAHGNTESGLLTTHSTWCTDSCQPITKTVEGTQVTMTCCQSSLCNVPPWQSSRVQDPTGKGAGGPRGSSETVGAALLLNLLAGLGAMGARRP [Q8IV16] has what recorded percentage of EdU-negative?
Result block: 28.3

Query block: Item MAGRLLGKALAAVSLSLALASVTIRSSRCRGIQAFRNSFSSSWFHLNTNVMSGSNGSKENSHNKARTSPYPGSKVERSQVPNEKVGWLVEWQDYKPVEYTAVSVLAGPRWADPQISESNFSPKFNEKDGHVERKSKNGLYEIENGRPRNPAGRTGLVGRGLLGRWGPNHAADPIITRWKRDSSGNKIMHPVSGKHILQFVAIKRKDCGEWAIPGGMVDPGEKISATLKREFGEEALNSLQKTSAEKREIEEKLHKLFSQDHLVIYKGYVDDPRNTDNAWMETEAVNYHDETGEIMDNLMLEAGDDAGKVKWVDINDKLKLYASHSQFIKLVAEKRDAHWSEDSEADCHAL [Q9BW91] has what recorded percentage of EdU-negative?
Result block: 26.4

Query block: Item MKGWGWLALLLGALLGTAWARRSQDLHCGACRALVDELEWEIAQVDPKKTIQMGSFRINPDGSQSVVEVPYARSEAHLTELLEEICDRMKEYGEQIDPSTHRKNYVRVVGRNGESSELDLQGIRIDSDISGTLKFACESIVEEYEDELIEFFSREADNVKDKLCSKRTDLCDHALHISHDEL [Q9Y2B0] has what recorded percentage of EdU-negative?
Result block: 23.4

Query block: Item `MDSYLLMWGLLTFIMVPGCQAELCDDDPPEIPHATFKAMAYKEGTMLNCECKRGFRRIKSGSLYMLCTGNSSHSSWDNQCQCTSSATRNTTKQVTPQPEEQKERKTTEMQSPMQPVDQASLPGHCREPPPWENEATERIYHFVVGQMVYYQCVQGYRALHRGPAESVCKMTHGKTRWTQPQLICTGEMETSQFPGEEKPQASPEGRPESETSCLVTTTDFQIQTEMAATMETSIFTTEYQVAVAGCVFLLISVLLLSGLTWQRRQRKSRRTI` has what recorded percentage of EdU-negative?
Result block: 24.6

Query block: Item `MDPQCTMGLSNILFVMAFLLSGAAPLKIQAYFNETADLPCQFANSQNQSLSELVVFWQDQENLVLNEVYLGKEKFDSVHSKYMGRTSFDSDSWTLRLHNLQIKDKGLYQCIIHHKKPTGMIRIHQMNSELSVLANFSQPEIVPISNITENVYINLTCSSIHGYPEPKKMSVLLRTKNSTIEYDGVMQKSQDNVTELYDVSISLSVSFPDVTSNMTIFCILETDKTRLLSSPFSIELEDPQPPPDHIPWITAVLPTVIICVMVFCLILWKWKKKKRPRNSYKCGTNTMEREESEQTKKREKIHIPERSDEAQRVFKSSKTSSCDKSDTCF` has what recorded percentage of EdU-negative?
Result block: 24
